These measurements were taken from PubChem BioAssay AID652068.

experiment: displacement of TO-PRO-1 from CAG DNA duplex, counter-screen for rCAG RNA repeat binder project, biochemical, fluorescence, TO-PRO-1 dye, d(CAG) DNA oligo (AID 652068); conditions: d(CAG) DNA oligo TO-PRO-1 dye displacement, at 3 µM, hits give high values;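 note: hits displace the dye from DNA and so lower well fluorescence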
Screen size: about 4,300 compounds; about 4,000 (93%) were called active. So high a share suggests a set chosen from earlier hits. A selection follows.
Label Criterion not met if inhibition falls below 20%; label Criterion met in every other case.

>  <Compound>
Cc1ccc2nc(N3C(=O)C(O)=C(C(=O)c4ccco4)C3c3cccc(O)c3)sc2c1 (stereo not drawn)

>  <Answer Label>
Criterion met

$$$$
>  <Compound>
CCSc1nsc(NC(=O)Nc2cccc(C(C)=O)c2)n1

>  <Answer Label>
Criterion not met

$$$$
>  <Compound>
O=[N+]([O-])c1cc(Br)c(O)c(/C=N/Nc2nc3ccccc3s2)c1

>  <Answer Label>
Criterion met

$$$$
>  <Compound>
O=C(O)c1ccc(NN=CC2=C(N3CCOCC3)/C(=C/c3ccccc3)CC2)cc1

>  <Answer Label>
Criterion met

$$$$
>  <Compound>
O=C(O)CC/C(=C\c1cc2c(cc1Br)OCO2)c1nc2ccccc2s1

>  <Answer Label>
Criterion not met

$$$$
>  <Compound>
COc1cc2ccccc2cc1C(=O)Nc1ccc(S(=O)(=O)Nc2cc(C)on2)cc1

>  <Answer Label>
Criterion met

$$$$
>  <Compound>
CC1(C(=O)NS(=O)(=O)c2ccccc2)CCN1C(=O)Cc1ccc(-c2ccccc2)cc1 (stereo not drawn)

>  <Answer Label>
Criterion not met

$$$$
>  <Compound>
Cc1ccc(/C=C/C(=O)Nc2ccc([N+](=O)[O-])c(NC(=O)/C=C/c3ccc(C)o3)c2)o1

>  <Answer Label>
Criterion met

$$$$
